measurement target: PKR (unphosphorylated) (Homo sapiens, UniProt P19525 1-551)
Sequence (P19525 whole entry): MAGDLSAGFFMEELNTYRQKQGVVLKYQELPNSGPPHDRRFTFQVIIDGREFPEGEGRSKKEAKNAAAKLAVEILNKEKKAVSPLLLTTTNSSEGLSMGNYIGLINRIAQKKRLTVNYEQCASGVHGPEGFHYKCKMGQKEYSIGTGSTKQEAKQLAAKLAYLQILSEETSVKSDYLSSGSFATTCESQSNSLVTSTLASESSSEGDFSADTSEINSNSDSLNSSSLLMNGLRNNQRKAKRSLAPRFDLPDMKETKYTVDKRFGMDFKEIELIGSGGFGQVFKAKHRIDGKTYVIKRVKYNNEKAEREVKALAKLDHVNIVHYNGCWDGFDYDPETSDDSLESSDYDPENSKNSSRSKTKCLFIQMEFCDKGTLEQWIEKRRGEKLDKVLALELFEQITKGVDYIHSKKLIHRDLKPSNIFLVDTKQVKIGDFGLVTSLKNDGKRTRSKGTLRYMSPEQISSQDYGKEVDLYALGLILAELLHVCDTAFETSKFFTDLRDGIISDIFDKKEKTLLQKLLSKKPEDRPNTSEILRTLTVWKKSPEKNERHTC
test name: FP
recorded conditions: protein: recombinant; tags: His tag (HisTrap purified); label: 3' FAM; hairpin
attribute measured: pKd
Value format note: pKd is -log10 of concentration (mol/L); just state the number.

// below: answered binders
INSERT INTO results (binder, quantitative_result) VALUES
  ('GUUAGACCAGAUCUGAGCCUGGGAGCUCUCUGGCUAAC (structured_RNA) [TARΔ9bp]', 6.89),
  ('CUCUGGUUAGACCAGAUCUGAGCCUGGGAGCUCUCUGGCUAACUAGGG (structured_RNA) [TARΔ4bp]', 7.30);

Write down pKd measured for item CCAGAUCUGAGCCUGGGAGCUCUCUGG (structured_RNA) [TARΔ14bp]
5.91

The origin of these recorded values is paper PMC11885821.
